Target: T1, CAPRIN-1 protein expressed on the membrane surface of human cancer cells (human, UniProt Q14444 2-709)
T1 sequence (looked up): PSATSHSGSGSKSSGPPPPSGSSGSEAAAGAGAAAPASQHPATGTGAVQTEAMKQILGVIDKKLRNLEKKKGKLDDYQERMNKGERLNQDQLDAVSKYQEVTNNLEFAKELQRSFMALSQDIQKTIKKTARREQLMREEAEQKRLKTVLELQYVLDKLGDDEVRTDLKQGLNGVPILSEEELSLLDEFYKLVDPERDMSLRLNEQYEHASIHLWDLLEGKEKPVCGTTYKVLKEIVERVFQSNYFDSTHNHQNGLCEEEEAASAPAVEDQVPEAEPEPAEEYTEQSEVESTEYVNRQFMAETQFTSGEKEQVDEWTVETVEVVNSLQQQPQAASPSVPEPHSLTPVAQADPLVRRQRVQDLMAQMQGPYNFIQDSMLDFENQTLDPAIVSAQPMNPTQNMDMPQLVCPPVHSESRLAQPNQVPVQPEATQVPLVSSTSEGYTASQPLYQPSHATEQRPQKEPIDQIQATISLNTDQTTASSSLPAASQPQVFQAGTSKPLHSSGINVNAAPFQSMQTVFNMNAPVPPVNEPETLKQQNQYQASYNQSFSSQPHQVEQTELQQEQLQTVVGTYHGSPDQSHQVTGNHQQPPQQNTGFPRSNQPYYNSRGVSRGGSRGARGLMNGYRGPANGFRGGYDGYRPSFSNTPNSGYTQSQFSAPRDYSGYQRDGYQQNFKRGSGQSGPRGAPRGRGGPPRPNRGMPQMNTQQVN
Test: cell-based or functional assay
assay_readout: ADCC cytotoxic activity (51Cr release) on Caki-2

Q) Recorded ADCC cytotoxic activity (51Cr release) on Caki-2 of humanized antibody #8 (antibody, V domains shown) VH: QSLVESGGGLVQPGGSLRLSCAASGFSLSSHSLGWVRQAPGKGLEWIGDIRSGGSAYYANWAKGRFTISRTSSKNTVYLQMNSLRAEDTAVYFCTRTNGPSDLTNRLDLWGQGTLVTVSS VL: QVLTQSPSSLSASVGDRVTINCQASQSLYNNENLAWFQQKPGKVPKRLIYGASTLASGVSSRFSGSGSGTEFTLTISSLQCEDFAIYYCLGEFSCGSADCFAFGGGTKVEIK , please.
A) ≥ 26%

Shift focus to the following entry.
Q) Recorded ADCC cytotoxic activity (51Cr release) on Caki-2 of human-rabbit chimeric anti-CAPRIN-1 antibody (antibody, V domains shown) VH: QSLEESGGRLVTPGTPLTLTCTASGFSLSSHSLGWVRQAPGKGLEWIGDIRSGGSAYYANWAKGRFTISRTSTTVALKMTSLTTEDTATYFCTRTNGPSDLTNRLDLWGQGTLVTVSS VL: QVLTQTPSSVSAAVGGTVTINCQASQSLYNNENLAWFQQKPGQPPKRLIYGASTLASGVSSRFKGSGSGTQFTLTIGDVQCDDAAIYYCLGEFSCGSADCFAFGGGTEVVVK , please.
A) ≥ 26%
